Values from patent US11091559B2

target.of.assay: murine ALK (purified mouse ALK antigen) (Mus musculus, UniProt P97793)
Sequence (P97793 19-1042 limits assumed): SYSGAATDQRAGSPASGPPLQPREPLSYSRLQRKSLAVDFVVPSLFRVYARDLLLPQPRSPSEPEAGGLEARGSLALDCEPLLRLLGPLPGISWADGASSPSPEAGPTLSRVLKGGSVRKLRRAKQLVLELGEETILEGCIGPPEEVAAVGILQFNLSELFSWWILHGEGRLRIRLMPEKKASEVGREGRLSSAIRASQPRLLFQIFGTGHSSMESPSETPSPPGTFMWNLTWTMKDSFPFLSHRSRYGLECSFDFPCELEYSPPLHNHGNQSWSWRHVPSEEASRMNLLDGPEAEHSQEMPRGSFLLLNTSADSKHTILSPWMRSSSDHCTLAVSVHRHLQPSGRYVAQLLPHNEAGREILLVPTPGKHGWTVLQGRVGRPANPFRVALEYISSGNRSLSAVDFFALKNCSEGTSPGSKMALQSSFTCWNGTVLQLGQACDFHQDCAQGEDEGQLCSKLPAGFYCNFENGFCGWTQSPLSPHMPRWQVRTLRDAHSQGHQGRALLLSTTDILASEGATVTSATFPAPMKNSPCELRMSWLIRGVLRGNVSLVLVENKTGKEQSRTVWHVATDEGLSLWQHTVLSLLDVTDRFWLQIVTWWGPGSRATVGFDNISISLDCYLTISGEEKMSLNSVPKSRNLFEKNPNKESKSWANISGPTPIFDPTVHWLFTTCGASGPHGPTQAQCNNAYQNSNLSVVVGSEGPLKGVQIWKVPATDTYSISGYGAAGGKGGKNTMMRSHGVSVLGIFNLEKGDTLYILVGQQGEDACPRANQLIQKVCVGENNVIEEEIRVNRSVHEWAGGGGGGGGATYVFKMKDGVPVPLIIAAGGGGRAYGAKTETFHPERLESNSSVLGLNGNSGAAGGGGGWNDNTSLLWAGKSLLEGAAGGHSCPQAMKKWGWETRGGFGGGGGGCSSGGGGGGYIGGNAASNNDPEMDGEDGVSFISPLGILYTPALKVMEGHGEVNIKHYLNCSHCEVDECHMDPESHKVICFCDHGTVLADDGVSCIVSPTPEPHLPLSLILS
method: Mouse ALK cross-reactivity, solid-state ELISA
Type: binding
Set-up: key: − none; + weak; ++ moderate; +++ strong
run.conditions: cross-reactivity with murine ALK
measured.metric: mouse ALK binding

molecule="Ab332: anti-ALK monoclonal antibody; VL SEQ ID NO: 419, VH SEQ ID NO: 420 (antibody, V domains shown, VH domain - Ab332; VL domain - Ab332) VH: EVQLQQSGPELVKPGTSVKISCKASGYTFTDYYMNWMKQSHGKSLEWIGDINPNNGVTSYNQKFKGKATLTVDKSSSTAYMELRSLTSEDSAVYYCAREDYGSNYFDYWGQGTTLTVSS VL: DIVLTQSPASLAVSLGQRATISCKASQSVDYDGDSYMNWYQQKPGQPPKLLIYAASNLESGIPARLSGSGSGTDFTLNIHPVEEEDAATYYCQQSNEDPPTFGGGTKLEIRR" measured_metric="mouse ALK binding" result=+
molecule="Ab327: anti-ALK monoclonal antibody; VL SEQ ID NO: 409, VH SEQ ID NO: 410 (antibody, V domains shown, VH domain - Ab327; VL domain - Ab327) VH: DVKLVESGEGLVKPGGSLKLSCAASGFTFSSYAMSWVRQTPEKRLEWVTYISSGGDYIYYADTVKGRFTISRDNARNTLYLQMSSLKSEDTAMYYCTRERIWLRRFFDVWGTGTTVTVSS VL: DIVMTQSQKFMSTSVGDRVSITCKASQNVGTAVAWYQLKPGQSPKLLIYSASNRFTGVPDRFTGSGSGTDFTLTISNMQSEDLADYFCQQYSSYPLTFGSGTKLEIKR" measured_metric="mouse ALK binding" result=+++
molecule="Ab322: anti-ALK monoclonal antibody; VL SEQ ID NO: 399, VH SEQ ID NO: 400 (antibody, V domains shown, VH domain - Ab322; VL domain - Ab322) VH: QVQLQQSGAELAKPGASVKLSCKASGYTFTNYWMHWVKQRPGQGLEWIGYINPSSGYTKYNQKFKDKATLTADKSSSTAYMQLSSLTYEDSAVYYCARDYYGSSSWFAYWGQGTLVTVSA VL: DIVMTQSQRFMSTSVGDRVSVTCKASQNVGTNVAWYQQKPGQSPKALIYSASYRYSGVPDRFTGSGSGTDFTLTVSNVQSEDLAEYFCQQYNSYPYMYTFGGGTKLEIKR" measured_metric="mouse ALK binding" result=−
molecule="Ab326: anti-ALK monoclonal antibody; VL SEQ ID NO: 407, VH SEQ ID NO: 408 (antibody, V domains shown, VH domain - Ab326; VL domain - Ab326) VH: QVQLQQSGAELAKPGASVKLSCKASGYTFTSYWMHWVKQRPGQGLEWIGYIKPSSGYTKYNQKFKDKATLTADKSSSTAYMQLSSLTYEDSAVYYCARDYYGSSSWFAYWGQGTLVTVSA VL: DIVMTQSQRFMSTSVGDRVSVTCKASQNVGTNVAWYQQKPGQSPKALIYSASYRYSGVPDRFTGSGSGTDFTLTISNVQSEDLAEYFCQQYNSYPYMYTFGGGTKLEIKR" measured_metric="mouse ALK binding" result=+++
